growth inhibition values, listed per item
assay: NCI Yeast Anticancer Drug Screen. Data for the cln2 rad14 strain (AID 165);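 further: 0% = growth equal to vehicle treated cultures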; details: S. cerevisiae cln2 rad14 strain, at 50.0 µM, active compounds read high
The panel holds about 79,000 compounds, 15% with a hit somewhere; the sample as a whole holds those more often.

- COMPOUND: "S=C1NC2(CCCCC2)NC12CCCCC2"
  READOUT UNIT: "%"
  growth inhibition: -2
- COMPOUND: "CSCCl"
  READOUT UNIT: "%"
  growth inhibition: 88.8
- COMPOUND: "O=C(Cl)c1ccccn1"
  READOUT UNIT: "%"
  growth inhibition: 99.3
- COMPOUND: "CC1=[N+](Cc2cc(C)cc(C)c2O)CCCC1"
  READOUT UNIT: "%"
  growth inhibition: -3
- COMPOUND: "c1ccc([CH2][Pb]([c]2ccccc2)([c]2ccccc2)[c]2ccccc2)cc1"
  READOUT UNIT: "%"
  growth inhibition: 98.5
- COMPOUND: "O=C(O)c1ccccc1[Se][Se]c1ccccc1C(=O)O"
  READOUT UNIT: "%"
  growth inhibition: 8.05
- COMPOUND: "CC(C)NCC(O)c1ccc(O)c(O)c1.[Pt].c1ccc([PH+](c2ccccc2)c2ccccc2)cc1.c1ccc([PH+](c2ccccc2)c2ccccc2)cc1"
  READOUT UNIT: "%"
  growth inhibition: 97.8
- COMPOUND: "CN(C)CCCNc1ccnc2c(COC(=O)N(CCCl)CCCl)ccc([N+](=O)[O-])c12"
  READOUT UNIT: "%"
  growth inhibition: 43.6
- COMPOUND: "C[CH2][Sn]([CH2]C)([O]C(C)=O)[O][Sn]([CH2]C)([CH2]C)[O]C(C)=O"
  READOUT UNIT: "%"
  growth inhibition: 86.1
- COMPOUND: "CCOP(=O)(O)C(Nc1ccc(N=Nc2ccccc2)cc1)c1cccc(C(Nc2ccc(N=Nc3ccccc3)cc2)P(=O)(O)OCC)c1 (stereo not given)"
  READOUT UNIT: "%"
  growth inhibition: 44
